Target: GlunN1/GluN2A glutamate receptors (Homo sapiens (Human), UniProt Q05586+Q12879)
Sequence (Q12879 23-1464, other chains not shown): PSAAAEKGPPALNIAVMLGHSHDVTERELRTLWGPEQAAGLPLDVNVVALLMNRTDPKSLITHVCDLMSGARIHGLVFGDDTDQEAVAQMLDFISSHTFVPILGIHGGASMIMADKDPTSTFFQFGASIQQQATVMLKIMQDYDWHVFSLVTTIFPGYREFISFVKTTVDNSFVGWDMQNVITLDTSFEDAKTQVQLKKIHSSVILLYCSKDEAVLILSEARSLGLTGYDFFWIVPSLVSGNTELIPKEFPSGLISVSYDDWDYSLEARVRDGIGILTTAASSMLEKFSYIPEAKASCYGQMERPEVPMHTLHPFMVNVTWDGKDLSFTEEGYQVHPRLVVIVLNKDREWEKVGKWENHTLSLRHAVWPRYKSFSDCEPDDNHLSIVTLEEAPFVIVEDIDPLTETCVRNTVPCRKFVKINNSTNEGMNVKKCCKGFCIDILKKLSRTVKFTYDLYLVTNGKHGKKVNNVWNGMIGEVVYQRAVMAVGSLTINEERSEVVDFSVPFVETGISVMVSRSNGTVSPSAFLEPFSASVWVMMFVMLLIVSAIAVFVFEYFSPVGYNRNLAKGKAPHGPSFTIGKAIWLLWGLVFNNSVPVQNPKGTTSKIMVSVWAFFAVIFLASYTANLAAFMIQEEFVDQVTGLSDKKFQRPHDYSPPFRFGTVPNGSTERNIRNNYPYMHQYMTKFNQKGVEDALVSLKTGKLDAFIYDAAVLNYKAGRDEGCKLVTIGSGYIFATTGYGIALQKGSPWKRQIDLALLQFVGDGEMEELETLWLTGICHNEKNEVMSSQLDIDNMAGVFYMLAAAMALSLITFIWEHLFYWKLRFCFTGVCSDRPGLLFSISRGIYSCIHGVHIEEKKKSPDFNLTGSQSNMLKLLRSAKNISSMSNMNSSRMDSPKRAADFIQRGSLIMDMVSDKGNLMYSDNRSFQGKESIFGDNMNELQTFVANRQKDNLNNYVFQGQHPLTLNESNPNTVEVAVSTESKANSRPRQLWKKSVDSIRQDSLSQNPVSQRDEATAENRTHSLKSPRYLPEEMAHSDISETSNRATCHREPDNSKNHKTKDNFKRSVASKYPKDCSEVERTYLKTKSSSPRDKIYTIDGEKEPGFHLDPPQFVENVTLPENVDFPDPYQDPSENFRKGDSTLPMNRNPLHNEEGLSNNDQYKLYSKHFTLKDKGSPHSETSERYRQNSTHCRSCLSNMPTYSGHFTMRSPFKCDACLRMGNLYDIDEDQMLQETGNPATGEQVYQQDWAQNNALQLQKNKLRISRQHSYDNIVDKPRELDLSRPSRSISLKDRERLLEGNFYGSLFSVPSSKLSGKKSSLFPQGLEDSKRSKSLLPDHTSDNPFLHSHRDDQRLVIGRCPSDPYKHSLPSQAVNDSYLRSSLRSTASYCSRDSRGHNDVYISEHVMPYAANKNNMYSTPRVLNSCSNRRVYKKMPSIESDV
Assay: Whole-cell patch clamp of mammalian cells (Ionworks Barracuda), positive allosteric modulation, GluN1/GluN2A
Format: cell-based
Settings: HEK293 cells; % potentiation of current elicited with EC20 L-glutamate and 30 μM glycine; read-out: Avg Emax 2A (%)
READOUT: Emax (%)
The reply should contain only the number, in %.

// returns reported Emax for input `C[C@H](CCC1(O)CCC(C)(C)CC1)[C@H]1CC[C@H]2[C@@H]3CC[C@@H]4C[C@](O)(C(F)(F)F)CC[C@]4(C)[C@H]3C(=O)C[C@]12C`
32.4

// returns reported Emax for input `C[C@H](CCC[C@@H](O)C(F)(F)F)[C@H]1CC[C@H]2[C@@H]3CC[C@H]4C[C@](O)(C(F)(F)F)CC[C@]4(C)[C@H]3CC[C@]12C`
318

// returns reported Emax for input `C[C@H](CCC[C@@H](O)C(C)(C)C)[C@H]1CC[C@H]2[C@@H]3CC[C@H]4C[C@](O)(C(F)(F)F)CC[C@]4(C)[C@H]3CC[C@]12C`
114

// returns reported Emax for input CC[C@]1(O)CC[C@@]2(C)C(=CC[C@H]3[C@@H]4CC[C@H]([C@H](C)CC[C@H](O)c5ccc(C#N)cc5)[C@@]4(C)CC[C@@H]32)C1 (single isomer, unassigned)
172

// returns reported Emax for input `C[C@H](CCC1(O)CCC2(CC1)CC2)[C@H]1CC[C@H]2[C@@H]3CC[C@H]4C[C@](O)(C(F)(F)F)CC[C@]4(C)[C@H]3CC[C@]12C`
175

// returns reported Emax for input `CC[C@]1(O)CC[C@H]2C(=CC[C@@H]3[C@@H]2CC[C@]2(C)[C@@H]([C@H](C)CCCC4(O)CCC(C)(C)CC4)CC[C@@H]32)C1`
56.7

// returns reported Emax for input `C[C@H](CC[C@H](O)C1CCC1)[C@H]1CC[C@H]2[C@@H]3CC[C@H]4C[C@](O)(C(F)(F)F)CC[C@]4(C)[C@H]3CC[C@]12C`
544

// returns reported Emax for input `CC(C)[C@@H](O)CC[C@@H](C)[C@H]1CC[C@H]2[C@@H]3CC[C@H]4C[C@@](C)(O)CC[C@@H]4[C@H]3CC[C@]12C`
457

* * *

Molecular target: GluN2B glutamate receptors (Homo sapiens (Human), UniProt Q05586+Q13224)
Sequence (Q13224 27-1484, other chains not shown): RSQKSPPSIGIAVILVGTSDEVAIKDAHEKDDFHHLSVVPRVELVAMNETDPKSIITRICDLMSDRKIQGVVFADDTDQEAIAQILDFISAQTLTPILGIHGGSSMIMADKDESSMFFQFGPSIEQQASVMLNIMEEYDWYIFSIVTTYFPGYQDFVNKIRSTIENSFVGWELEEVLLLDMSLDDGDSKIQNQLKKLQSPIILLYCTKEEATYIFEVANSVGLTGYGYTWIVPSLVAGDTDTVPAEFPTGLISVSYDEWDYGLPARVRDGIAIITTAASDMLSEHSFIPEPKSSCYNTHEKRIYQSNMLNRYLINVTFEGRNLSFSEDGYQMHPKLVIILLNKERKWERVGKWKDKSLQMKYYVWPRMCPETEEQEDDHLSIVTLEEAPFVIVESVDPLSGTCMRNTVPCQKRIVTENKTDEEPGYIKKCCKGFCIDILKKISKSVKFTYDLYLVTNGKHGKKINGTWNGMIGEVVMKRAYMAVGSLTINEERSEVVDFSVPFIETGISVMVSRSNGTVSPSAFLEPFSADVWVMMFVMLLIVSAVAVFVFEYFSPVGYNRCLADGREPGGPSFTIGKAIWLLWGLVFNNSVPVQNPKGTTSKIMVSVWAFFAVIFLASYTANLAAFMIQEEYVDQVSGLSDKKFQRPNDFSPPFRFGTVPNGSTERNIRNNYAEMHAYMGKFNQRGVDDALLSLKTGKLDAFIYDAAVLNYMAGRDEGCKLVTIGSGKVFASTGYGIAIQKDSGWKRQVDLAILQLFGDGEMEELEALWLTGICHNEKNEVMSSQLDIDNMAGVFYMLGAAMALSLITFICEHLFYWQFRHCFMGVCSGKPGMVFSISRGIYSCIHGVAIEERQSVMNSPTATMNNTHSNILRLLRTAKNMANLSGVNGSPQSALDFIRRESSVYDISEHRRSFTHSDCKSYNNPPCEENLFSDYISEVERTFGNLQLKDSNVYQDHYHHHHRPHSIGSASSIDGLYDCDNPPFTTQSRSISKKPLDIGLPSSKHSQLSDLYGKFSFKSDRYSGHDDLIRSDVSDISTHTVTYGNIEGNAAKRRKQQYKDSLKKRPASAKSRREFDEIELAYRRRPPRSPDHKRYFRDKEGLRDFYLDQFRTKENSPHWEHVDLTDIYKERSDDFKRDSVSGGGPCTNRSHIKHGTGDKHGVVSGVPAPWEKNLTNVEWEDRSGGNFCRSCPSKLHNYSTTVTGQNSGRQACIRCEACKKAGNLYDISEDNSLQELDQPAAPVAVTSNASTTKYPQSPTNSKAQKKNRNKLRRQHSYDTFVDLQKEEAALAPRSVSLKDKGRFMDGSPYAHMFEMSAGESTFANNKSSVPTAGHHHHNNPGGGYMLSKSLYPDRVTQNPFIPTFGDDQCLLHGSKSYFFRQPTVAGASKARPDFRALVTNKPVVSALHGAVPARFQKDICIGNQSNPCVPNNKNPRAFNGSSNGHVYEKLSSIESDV
Assay: Whole-cell patch clamp of mammalian cells (Ionworks Barracuda), positive allosteric modulation, GluN2B
Type: cell-based
READOUT: pEC50
Please keep in mind that pEC50 is minus log10 of the molar concentration; only the number is needed.

State its pEC50 on GluN2B glutamate receptors (Homo sapiens (Human), UniProt Q05586+Q13224): `C[C@H](CC[C@H](O)C(C)(C)C)[C@H]1CC[C@H]2[C@@H]3CC[C@@H]4C[C@](O)(C(F)(F)F)CC[C@]4(C)[C@H]3CC[C@]12C`
6.39

State its pEC50 on GluN2B glutamate receptors (Homo sapiens (Human), UniProt Q05586+Q13224): CC[C@]1(O)CC[C@@]2(C)C(=CC[C@H]3[C@@H]4CC[C@H]([C@H](C)CCC(O)c5ccccn5)[C@@]4(C)CC[C@@H]32)C1 (stereo partly shown)
6.28

State its pEC50 on GluN2B glutamate receptors (Homo sapiens (Human), UniProt Q05586+Q13224): CC[C@]1(O)CC[C@H]2C(=CC[C@@H]3[C@@H]2CC[C@]2(C)[C@@H]([C@H](C)CCC4(O)CCOC4)CC[C@@H]32)C1 (stereo partly shown)
6.76

State its pEC50 on GluN2B glutamate receptors (Homo sapiens (Human), UniProt Q05586+Q13224): `CC[C@]1(O)CC[C@@]2(C)C(=CC[C@H]3[C@@H]4CC[C@H]([C@H](C)CC[C@@H](O)c5ccccc5F)[C@@]4(C)CC[C@@H]32)C1`
6.76

State its pEC50 on GluN2B glutamate receptors (Homo sapiens (Human), UniProt Q05586+Q13224): `COC[C@H]1CC[C@](O)(CC[C@@H](C)[C@H]2CC[C@H]3[C@@H]4CC[C@H]5C[C@](O)(C(F)(F)F)CC[C@]5(C)[C@H]4CC[C@]23C)CC1`
6.89

State its pEC50 on GluN2B glutamate receptors (Homo sapiens (Human), UniProt Q05586+Q13224): C[C@H](CCC(O)C(C)(C)C)[C@H]1CC[C@H]2[C@@H]3CC[C@H]4C[C@](O)(C(F)(F)F)CC[C@]4(C)[C@H]3CC[C@]12C (stereo partly shown)
6.47

State its pEC50 on GluN2B glutamate receptors (Homo sapiens (Human), UniProt Q05586+Q13224): `CC[C@@H](O)CC[C@@H](C)[C@H]1CC[C@H]2[C@@H]3CC=C4C[C@](O)(CC)CC[C@@H]4[C@H]3CC[C@]12C`
6.61

State its pEC50 on GluN2B glutamate receptors (Homo sapiens (Human), UniProt Q05586+Q13224): `C[C@H](CC[C@H](O)C(C)(C)C)[C@H]1CC[C@H]2[C@@H]3CC[C@H]4C[C@](O)(C(F)(F)F)CC[C@]4(C)[C@H]3CC[C@]12C`
7.10

State its pEC50 on GluN2B glutamate receptors (Homo sapiens (Human), UniProt Q05586+Q13224): `CC[C@]1(O)CC[C@@]2(C)C(=CC[C@H]3[C@@H]4CC[C@H]([C@H](C)CC[C@H](O)c5cccnc5)[C@@]4(C)CC[C@@H]32)C1`
6.03

State its pEC50 on GluN2B glutamate receptors (Homo sapiens (Human), UniProt Q05586+Q13224): `CC(C)[C@H](O)CC[C@@H](C)[C@H]1CC[C@H]2[C@@H]3CC[C@H]4C[C@](O)(C(F)(F)F)CC[C@]4(C)[C@H]3CC[C@]12C`
6.85

State its pEC50 on GluN2B glutamate receptors (Homo sapiens (Human), UniProt Q05586+Q13224): `C[C@H](CC[C@H](O)C1CCC1)[C@H]1CC[C@H]2[C@@H]3CC[C@H]4C[C@](O)(C(F)(F)F)CC[C@]4(C)[C@H]3CC[C@]12C`
6.73

* * *

Target: GlunN1/GluN2A glutamate receptors (Homo sapiens (Human), UniProt Q05586+Q12879)
Assay: Whole-cell patch clamp of mammalian cells (Ionworks Barracuda), positive allosteric modulation, GluN1/GluN2A
Type: cell-based
Details: HEK293 cells; % potentiation of current elicited with EC20 L-glutamate and 30 μM glycine; read-out: Avg Emax 2A (%)
Can you tell me Emax for the items I'm about to list?
The reply should contain only the number, in %.

State its Emax on GlunN1/GluN2A glutamate receptors (Homo sapiens (Human), UniProt Q05586+Q12879): CC[C@]1(O)CC[C@H]2C(=CC[C@@H]3[C@@H]2CC[C@]2(C)[C@@H]([C@H](C)CCCC4(O)CC4)CC[C@@H]32)C1 [Compound 10790]
160

State its Emax on GlunN1/GluN2A glutamate receptors (Homo sapiens (Human), UniProt Q05586+Q12879): CC(C)C(O)CC[C@@H](C)[C@H]1CC[C@H]2[C@@H]3CC[C@H]4C[C@@](C)(O)CC[C@@H]4[C@H]3CC[C@]12C (stereo partly shown) [Compound 175]
367

State its Emax on GlunN1/GluN2A glutamate receptors (Homo sapiens (Human), UniProt Q05586+Q12879): CC[C@]1(O)CC[C@H]2C(=CC[C@@H]3[C@@H]2CC[C@]2(C)[C@@H]([C@H](C)CCC4(O)CCC(C)(C)CC4)CC[C@@H]32)C1 [Compound 8946]
263

State its Emax on GlunN1/GluN2A glutamate receptors (Homo sapiens (Human), UniProt Q05586+Q12879): CC[C@]1(O)CC[C@@]2(C)[C@@H](CC[C@@H]3[C@@H]2CC[C@]2(C)[C@@H]([C@H](C)CC[C@H](O)c4cccnc4)CC[C@@H]32)C1 [Compound 6754]
22.3

* * *

Biological target: GluN2B glutamate receptors (Homo sapiens (Human), UniProt Q05586+Q13224)
Assay: Whole-cell patch clamp of mammalian cells (Ionworks Barracuda), positive allosteric modulation, GluN2B
Assay type: cell-based
Conditions: % potentiation of current elicited with EC20 L-glutamate and 30 μM glycine; read-out: Avg Emax 2B (%)
READOUT: Emax (%)
The reply should contain only the number, in %.

// returns reported Emax for input `C[C@H](CCC1(O)CCC2(CC1)CC2)[C@H]1CC[C@H]2[C@@H]3CC[C@H]4C[C@](O)(C(F)(F)F)CC[C@]4(C)[C@H]3CC[C@]12C`
129

// returns reported Emax for input `C[C@H](CC[C@](C)(O)C(F)(F)F)[C@H]1CC[C@H]2[C@@H]3CC[C@H]4C[C@](O)(C(F)(F)F)CC[C@]4(C)[C@H]3CC[C@]12C`
463

// returns reported Emax for input `C[C@H](CC[C@@]1(O)CCOC1)[C@H]1CC[C@H]2[C@@H]3CC[C@H]4C[C@](O)(C(F)(F)F)CC[C@]4(C)[C@H]3CC[C@]12C`
139

// returns reported Emax for input `CC[C@H]1CC[C@@](O)(CC[C@@H](C)[C@H]2CC[C@H]3[C@@H]4CC[C@H]5C[C@](O)(C(F)(F)F)CC[C@]5(C)[C@H]4CC[C@]23C)CC1`
355

// returns reported Emax for input `C[C@H](CCC[C@H](O)C(C)(C)C)[C@H]1CC[C@H]2[C@@H]3CC[C@H]4C[C@](O)(C(F)(F)F)CC[C@]4(C)[C@H]3CC[C@]12C`
111
